# Measured On: Norovirus surrogate virus-like particle, type GII.4 Minerva strain (human Norovirus GII.4 Minerva strain)
# Experiment Description: SPR, unpurified peptide against nVLP GII.4
What Avg Binding (Spot 1/2) was measured for each of the following?
Please give only the number in your answer, with no unit.

Per the record, RWHRVKLRSHTELNRYIGSC [Mut Peptide-92] has Avg Binding (Spot 1/2) of 230

Per the record, AWARSNNSRSKAFNLGWGSC [Mut Peptide-81] has Avg Binding (Spot 1/2) of 128

Per the record, VWARKNNKRKKDFNAGWGSC [Mut Peptide-53] has Avg Binding (Spot 1/2) of 189

Per the record, DWARKNNKRKMNFNLGWGSC [Mut Peptide-60] has Avg Binding (Spot 1/2) of 134
